- test-system: MBP-FoxP3dN (Mus musculus, UniProt Q99JB6 188-423)
- Sequence: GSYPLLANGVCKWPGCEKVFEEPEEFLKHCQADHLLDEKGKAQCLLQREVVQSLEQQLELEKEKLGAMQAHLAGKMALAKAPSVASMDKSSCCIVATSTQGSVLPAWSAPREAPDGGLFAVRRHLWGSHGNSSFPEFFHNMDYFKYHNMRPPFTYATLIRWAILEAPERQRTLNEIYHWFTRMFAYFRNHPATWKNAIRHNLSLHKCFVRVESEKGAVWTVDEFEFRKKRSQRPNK
- assay-procedure: PD-seq (MBP pull-down with sequencing); 20 mM Tris-HCl pH 7.5, 100 mM NaCl, 1.5 mM MgCl2, 0.4 uM protein, 0.1 uM dsDNA library, 30 min, room temperature, amylose pull-down; high values mean tight binding
- applied-conditions: protein: recombinant; tags: His6-MBP; chain copies: 2; dsDNA, one strand shown
The full ranking holds about 16,000 sequences; the median of “rpm ratio (pull-down/input)” is about 0.5, and the highest 2% start at about 5.5. Only a selection was taken, and the highest values are over-represented in it overall.
Would you kindly list binding signal for each of these sequences?

# sequence GATGATTGTTCTCCCAGCTGATGAATTTGGTTAGTCGAGTAAACAAATTTTCCTAATCTTTCTGTTCAAGCGCCATCTAC ; its binding signal = 2.03 RPM ratio (pull-down/input)

# sequence GATGATTGTTCTCCCAGCTGATGAATTGACCGAATCGAGTAAACAAATTTTCCTAATCTTTCTGTTCAAGCGCCATCTAC ; its binding signal = 0.227 RPM ratio (pull-down/input)

# sequence GATGATTGTTCTCCCAGCTGATGAATTTATACCTTCGAGTAAACAAATTTTCCTAATCTTTCTGTTCAAGCGCCATCTAC ; its binding signal = 0.85 RPM ratio (pull-down/input)

# sequence GATGATTGTTCTCCCAGCTGATGAATTAGTACAGTCGAGTAAACAAATTTTCCTAATCTTTCTGTTCAAGCGCCATCTAC ; its binding signal = 0.484 RPM ratio (pull-down/input)

# sequence GATGATTGTTCTCCCAGCTGATGAATTACCCAACTCGAGTAAACAAATTTTCCTAATCTTTCTGTTCAAGCGCCATCTAC ; its binding signal = 0.253 RPM ratio (pull-down/input)

# sequence GATGATTGTTCTCCCAGCTGATGAATTCTCTCCATCGAGTAAACAAATTTTCCTAATCTTTCTGTTCAAGCGCCATCTAC ; its binding signal = 0.223 RPM ratio (pull-down/input)

# sequence GATGATTGTTCTCCCAGCTGATGAATTTCCGGTATCGAGTAAACAAATTTTCCTAATCTTTCTGTTCAAGCGCCATCTAC ; its binding signal = 0.44 RPM ratio (pull-down/input)

# sequence GATGATTGTTCTCCCAGCTGATGAATTGTGTTAGTCGAGTAAACAAATTTTCCTAATCTTTCTGTTCAAGCGCCATCTAC ; its binding signal = 5.98 RPM ratio (pull-down/input)

# sequence GATGATTGTTCTCCCAGCTGATGAATTACTATTATCGAGTAAACAAATTTTCCTAATCTTTCTGTTCAAGCGCCATCTAC ; its binding signal = 0.758 RPM ratio (pull-down/input)

# sequence GATGATTGTTCTCCCAGCTGATGAATTGTTGTCCTCGAGTAAACAAATTTTCCTAATCTTTCTGTTCAAGCGCCATCTAC ; its binding signal = 5.63 RPM ratio (pull-down/input)

# sequence GATGATTGTTCTCCCAGCTGATGAATTCTTCTCATCGAGTAAACAAATTTTCCTAATCTTTCTGTTCAAGCGCCATCTAC ; its binding signal = 0.242 RPM ratio (pull-down/input)

# sequence GATGATTGTTCTCCCAGCTGATGAATTATTGCAGTCGAGTAAACAAATTTTCCTAATCTTTCTGTTCAAGCGCCATCTAC ; its binding signal = 1.18 RPM ratio (pull-down/input)

# sequence GATGATTGTTCTCCCAGCTGATGAATTAAAAATTTCGAGTAAACAAATTTTCCTAATCTTTCTGTTCAAGCGCCATCTAC ; its binding signal = 0.202 RPM ratio (pull-down/input)

# sequence GATGATTGTTCTCCCAGCTGATGAATTCTTGGGATCGAGTAAACAAATTTTCCTAATCTTTCTGTTCAAGCGCCATCTAC ; its binding signal = 0.227 RPM ratio (pull-down/input)

# sequence GATGATTGTTCTCCCAGCTGATGAATTCTCTACTTCGAGTAAACAAATTTTCCTAATCTTTCTGTTCAAGCGCCATCTAC ; its binding signal = 0.233 RPM ratio (pull-down/input)

# sequence GATGATTGTTCTCCCAGCTGATGAATTGTCCTACTCGAGTAAACAAATTTTCCTAATCTTTCTGTTCAAGCGCCATCTAC ; its binding signal = 0.368 RPM ratio (pull-down/input)

# sequence GATGATTGTTCTCCCAGCTGATGAATTTTACTCATCGAGTAAACAAATTTTCCTAATCTTTCTGTTCAAGCGCCATCTAC ; its binding signal = 0.402 RPM ratio (pull-down/input)

# sequence GATGATTGTTCTCCCAGCTGATGAATTCTGTTAGTCGAGTAAACAAATTTTCCTAATCTTTCTGTTCAAGCGCCATCTAC ; its binding signal = 5.31 RPM ratio (pull-down/input)

# sequence GATGATTGTTCTCCCAGCTGATGAATTTGTTTAGTCGAGTAAACAAATTTTCCTAATCTTTCTGTTCAAGCGCCATCTAC ; its binding signal = 7.22 RPM ratio (pull-down/input)

# sequence GATGATTGTTCTCCCAGCTGATGAATTGGGTCATTCGAGTAAACAAATTTTCCTAATCTTTCTGTTCAAGCGCCATCTAC ; its binding signal = 0.64 RPM ratio (pull-down/input)

# sequence GATGATTGTTCTCCCAGCTGATGAATTCTGTCATTCGAGTAAACAAATTTTCCTAATCTTTCTGTTCAAGCGCCATCTAC ; its binding signal = 4.31 RPM ratio (pull-down/input)

# sequence GATGATTGTTCTCCCAGCTGATGAATTGTTAGTGTCGAGTAAACAAATTTTCCTAATCTTTCTGTTCAAGCGCCATCTAC ; its binding signal = 4.19 RPM ratio (pull-down/input)

# sequence GATGATTGTTCTCCCAGCTGATGAATTTTTTTAGTCGAGTAAACAAATTTTCCTAATCTTTCTGTTCAAGCGCCATCTAC ; its binding signal = 0.273 RPM ratio (pull-down/input)

These data points were gathered from paper PMC12820563.
